src = paper PMC9019904

test system: BV2 (mouse microglia) cell line; assay: pHrodo-myelin phagocytosis/cell viability high content imaging assay: viability (cell count, nuclear area, nuclear intensity); conditions: BV2 cells, 10 uM compound, 48 hours treatment
reported endpoint: 2. Nuclear Area (% Control)
Answers are plain numbers, in % Control.

Example entries and their recorded answers appear below.
Fc1ccc(C(CCCNCC2CCc3[nH]c4ccc(F)cc4c3C2)c2ccc(F)cc2)cc1 (stereo not drawn) [UNC10302893A] ... 127.3
CC(C)[C@H](O)C(=O)N[C@@H](C)C(=O)N[C@@H]1C(=O)N(C)CCc2ccccc21 [UNC10303095A] ... 102.1
C[C@H](N/C(=N\c1cccc2ncccc12)NC#N)c1ccccc1 [UNC10302855A] ... 103.4
CC(C)Nc1cc(-c2c[nH]c(C(=O)N[C@H](CO)c3cccc(Cl)c3)c2)c(Cl)cn1 [UNC10302869A] ... 125.5
CC[C@H](C)[C@H](N)C(=O)NCCN1CCOCC1.Cl.Cl [UNC10303094A] ... 103.4

# batch: return 2. Nuclear Area (% Control) for each of the 6 compounds below
1. Cl.O=C(O)Cc1cccc(OCCCN(Cc2cccc(C(F)(F)F)c2Cl)CC(c2ccccc2)c2ccccc2)c1 [UNC10302974A]
2. Cc1cc(Nc2ncc(Cl)c(Nc3ccccc3S(=O)(=O)C(C)C)n2)c(OC(C)C)cc1C1CCNCC1 [UNC10244729A]
3. Cc1ccc(-n2nc(C(C)(C)C)cc2NC(=O)Nc2ccc(OCCN3CCOCC3)c3ccccc23)cc1 [UNC10225354A]
4. OC(c1cc(C23CC4CC(CC(C4)C2)C3)nc2c(Cl)cc(Cl)cc12)C1CCCCN1 (stereo not drawn) [UNC10302897A]
5. C=CC[C@@H]1/C=C(\C)C[C@H](C)C[C@H](OC)[C@H]2O[C@@](O)(C(=O)C(=O)N3CCCC[C@H]3C(=O)O[C@H](/C(C)=C/[C@@H]3CC[C@@H](O)[C@H](OC)C3)[C@H](C)[C@@H](O)CC1=O)[C@H](C)C[C@@H]2OC [UNC10121346A]
6. CCc1ccc(S(=O)(=O)c2ccccc2)cc1S(=O)(=O)NCCCN(C)C [UNC10302948A]

[107.6, 92.5, 105.8, 105.3, 110.1, 106.0]

Each compound below has a recorded value; state its 2. Nuclear Area (% Control).
1. Cc1cc2c(cc1-c1cc(/C=C\C(=O)O)ccc1O)C(C)(C)CCC2(C)C [UNC10302903A]
2. CCC(=O)N1CCC(NC(=O)Nc2ccc(OC(F)(F)F)cc2)CC1 [UNC10302681A]
3. CCn1c(=O)/c(=C2\Sc3ccccc3N2C)s/c1=C\c1ccccn1 [UNC10302975A]
4. CN1c2ccc([N+](=O)[O-])cc2N=C(c2ccc(C(=O)O)cc2)c2cc3c(cc21)C(C)(C)CCC3(C)C [UNC10303107A]

107.7
99.0
104.2
151.2

----------
Provide the reported 3. Nuclear DNA Intensity (% control) of each item.
tested on: BV2 (mouse microglia) cell line; experiment: pHrodo-myelin phagocytosis/cell viability high content imaging assay: viability (cell count, nuclear area, nuclear intensity); conditions: BV2 cells, 10 uM compound, 48 hours treatment
Give bare numbers, in % control.

Some molecules with recorded 3. Nuclear DNA Intensity (% control):
Cc1ccc(-n2nc(C(C)(C)C)cc2NC(=O)Nc2ccc(OCCN3CCOCC3)c3ccccc23)cc1 [UNC10225354A] ... 105.3
CCN(CC)Cc1ccc(C(=O)N(CCc2ccccc2OC)[C@@H]2CCNC2)cc1.Cl.Cl [UNC10302833A] ... 102.7
CCOC(=O)CS(=O)(=O)c1ccc([C@@H](CO)NC(=O)c2cc3c(Cl)c(Cl)c(C)cc3n2C)cc1 [UNC10302908A] ... 97.5
O=C(Nc1ccc([N+](=O)[O-])cc1Cl)c1cc(Cl)ccc1O [UNC10302856A] ... 103.0

Quick one: give me 3. Nuclear DNA Intensity (% control) for each item below, same order please.
1. c1cn2cc(-c3ccc4cn[nH]c4c3)nc(Nc3ccc(N4CCOCC4)cc3)c2n1 [UNC10302678A]
2. COCCOCCOC(=O)N[C@@H](CC(C)C)C(=O)N[C@@H](Cc1ccccc1)C(=O)C(=O)NC1CC1 [UNC10302677A]
3. C=CC[C@@H]1/C=C(\C)C[C@H](C)C[C@H](OC)[C@H]2O[C@@](O)(C(=O)C(=O)N3CCCC[C@H]3C(=O)O[C@H](/C(C)=C/[C@@H]3CC[C@@H](O)[C@H](OC)C3)[C@H](C)[C@@H](O)CC1=O)[C@H](C)C[C@@H]2OC [UNC10121346A]

1: 164.6; 2: 103.4; 3: 115.2

----------
test: physchem; details: pH 7.4, aqueous buffer, kinetic from dmso stock
Classify as follows. Reported solubility kinetic greater than or equal to 100 µM: rule met. Reported solubility kinetic below: rule not met.

Answered cases to consult:
COc1ccc(CC[C@@H](OC(=O)[C@@H]2CCCCN2C(=O)[C@H](c2cc(OC)c(OC)c(OC)c2)C2CCCCC2)c2cccc(OCC(=O)O)c2)cc1OC ... rule not met
Cc1c(-c2ccc(O)cc2)n(Cc2ccc(OCCN3CCCCCC3)cc2)c2ccc(O)cc12 [Bazedoxifene acetate] ... rule not met
CC(C)CCC[C@@H](C)[C@H]1CC[C@H]2[C@@H]3CC[C@H]4C[C@H](N)CC[C@]4(C)[C@H]3CC[C@]12C ... rule not met
c1cn2cc(-c3ccc4cn[nH]c4c3)nc(Nc3ccc(N4CCOCC4)cc3)c2n1 ... rule not met
Cc1cc(NC(=O)Cc2ccc(F)c(Cl)c2)n(C2CCCCC2)n1 ... rule met
CC(C)CCOc1ccc(N)cc1 ... rule not met
COc1ccc2[nH]c([S+]([O-])Cc3ncc(C)c(OC)c3C)nc2n1 (stereo not shown) ... rule met
CNC(=O)[C@H](Cc1c[nH]c2ccccc12)NC(=O)[C@@H](CC(=O)NO)CC(C)C ... rule met
CCc1cc2c(cc1N1CCC(N3CCOCC3)CC1)C(C)(C)c1[nH]c3cc(C#N)ccc3c1C2=O ... rule not met
Cl.NC(=O)c1cnc(N[C@@H]2CCCC[C@@H]2N)nc1Nc1cccc(-n2nccn2)c1 [P505-15 (PRT06207 HCl)] ... rule met

Does solubility kinetic meet or surpass 100 µM for `CCN(CC)Cc1ccc(C(=O)N(CCc2ccccc2OC)[C@@H]2CCNC2)cc1.Cl.Cl` ? rule met

Could you verify whether the entry `CCCCc1nc(Cl)c(CO)n1Cc1ccc(-c2ccccc2-c2nn[nH]n2)cc1` shows solubility kinetic of no less than 100 µM? rule met

Kindly determine if solubility kinetic recorded for `Cl.NCCOCCOCCNC(=O)Cc1ccc(Nc2nc(NCc3ccc(F)cc3)nc(NCC3CCCCC3)n2)cc1` is above or exactly 100 µM. rule not met

For this compound, is measured solubility kinetic 100 µM or higher? Cl.O=C(NCCCNc1nc(Nc2cccc(CN3CCOCC3)c2)ncc1C1CC1)C1CCC1 [UNC10302867A, reference compound] rule met

----------
tested on: BV2 (mouse microglia) cell line; test: pHrodo-myelin phagocytosis/cell viability high content imaging assay: viability (cell count, nuclear area, nuclear intensity); conditions: BV2 cells, 10 uM compound, 48 hours treatment
What 2. Nuclear Area (% Control) was measured for each of the following?
Numbers only, in % Control.

Some solved entries appear below for comparison.
CO[C@H]1C[C@@H]2CC[C@@H](C)[C@@](O)(O2)C(=O)C(=O)N2CCCC[C@H]2C(=O)O[C@H]([C@H](C)C[C@@H]2CC[C@@H](O)[C@H](OC)C2)CC(=O)[C@H](C)/C=C(\C)[C@@H](O)[C@@H](OC)C(=O)[C@H](C)C[C@H](C)/C=C/C=C/C=C/1C [UNC10302852A] ... 106.2
COCCOCCOC(=O)N[C@@H](CC(C)C)C(=O)N[C@@H](Cc1ccccc1)C(=O)C(=O)NC1CC1 [UNC10302677A] ... 105.3
N#CC(CCCN1CCN(/N=C/c2cccnc2)CC1)(c1ccccc1)c1ccccc1 [UNC10302973A] ... 106.0
Cc1ccc(NC(=O)c2ccc(CN3CCN(C)CC3)cc2)cc1Nc1nc(-c2cccnc2)cs1 [UNC10126573A, masitinib, reference compound] ... 107.9
O=C(NC1CC1)C(=O)C(Cc1ccccc1)NC(=O)[C@H]1CCC(=O)N1Cc1ccccc1 (stereo partly drawn) [UNC10302676A] ... 105.0

What value of measured 2. Nuclear Area (% Control) is listed for O=C(/C=C/c1ccco1)Nc1ncc(Cc2ccccc2)s1 [UNC10302883A] ? 95.3

----------
assay: Kinetic solubility in aqueous buffer pH 7.4 by total chemiluminescent nitrogen determination (Analiza); conditions: aqueous buffer, pH 7.4, aqueous buffer, kinetic from dmso stock
Record form. Attribute: solubility kinetic. Fill in for each entry.
Answers are plain numbers, in µM.

Study these solved cases before continuing.
CS[C@@]1(C(=O)Nc2ccc3[nH]nc(-c4ccc(OC(C)C)nc4)c3c2)CCN(CC(=O)N2CC=C(c3ccc(-c4ncn(C)n4)cc3)CC2)C1 ... 4.8
C=CC[C@@H]1/C=C(\C)C[C@H](C)C[C@H](OC)[C@H]2O[C@@](O)(C(=O)C(=O)N3CCCC[C@H]3C(=O)O[C@H](/C(C)=C/[C@@H]3CC[C@@H](O)[C@H](OC)C3)[C@H](C)[C@@H](O)CC1=O)[C@H](C)C[C@@H]2OC ... 95.5
CCS(=O)(=O)N1CCN(c2ccc(Nc3ncc(C(N)=O)c(NC4CC4)n3)cc2)CC1 ... 1.8

Turning now to a further compound:
Return reported solubility kinetic; argument: `Cc1cc(Nc2ncc(Cl)c(Nc3ccccc3S(=O)(=O)C(C)C)n2)c(OC(C)C)cc1C1CCNCC1` 25.1
